I'd appreciate it if you could supply cell viability values for the items below.
# Test system: HL-60
# measurement-notes: cell viability (% survival relative to DMSO control); higher = less cytotoxic
# conditions-used: 0.001 µM; 72 h; co-treatment: pictilisib 100 nM
Write the numeric value and append its unit.

Name the recorded cell viability for O=C(C(=O)c1ccc(Br)cc1)c1ccc(Br)cc1 .
109%

Name the recorded cell viability for O=c1oc2c(cc1O)oc(=O)c1cc(O)c(O)c(O)c12 .
109%

Name the recorded cell viability for O=C(c1c2ccccc2cc2ccccc12)N1CCC(N2CCC[C@@H](C(=O)N3CCOCC3)C2)CC1 .
93.4%

====

# System: ML-2
# measurement-notes: cell viability (% survival relative to DMSO control, bortezomib = 0%); higher = less cytotoxic
# conditions-used: 10000 nM; 72 h
I'd appreciate it if you could supply cell viability values for the items below.
I only need the number, in %, no unit after it.

Name the recorded cell viability for CC(C)(CCCCCCCCCCC(C)(C)CC(=O)O)CC(=O)O [MEDICA 16] .
91.5

Name the recorded cell viability for Cc1nnc(-c2ccc(N3CCC(Oc4ccccc4C(F)(F)F)CC3)nn2)s1 [MF-438] .
88.3

Name the recorded cell viability for CCCCCCCNC=O [N-Heptyl-Formamide] .
90.9

====

# Test system: Mono-Mac-6
# measurement-notes: cell viability (% survival relative to DMSO control, bortezomib = 0%); higher = less cytotoxic
# conditions-used: 100 nM; 72 h
measured-parameter: cell viability (%)
I only need the number, in %, no unit after it.

Name the recorded cell viability for O[C@H]1[C@H](O)[C@@H](O)CN2CC[C@H](O)[C@H]12 [Castanospermine] .
105

Name the recorded cell viability for CCCCC/C=C\C/C=C\C/C=C\C/C=C\CCCC(=O)C(F)(F)F [Arachidonyl trifluoromethyl ketone] .
102

Name the recorded cell viability for C[C@H]1O[C@H](O[C@H]2[C@H](O)[C@@H](O)[C@@H](O[C@H]3[C@H](O)[C@@H](O)C(O)O[C@@H]3CO)O[C@@H]2CO)[C@H](O)[C@@H](O)[C@@H]1N[C@H]1C=C(CO)[C@@H](O)[C@H](O)[C@H]1O (mixture of isomers) [Acarbose] .
102

Name the recorded cell viability for CCCCCCCCCCCCCCOc1ccc(C(=O)O)o1 [TOFA] .
99.8

Name the recorded cell viability for COc1cc(C2Oc3cc(C4Oc5cc(O)cc(O)c5C(=O)C4O)ccc3OC2CO)ccc1O (stereo unspecified) [Silibinin] .
94.1

Name the recorded cell viability for OCC(CO)N[C@H]1C[C@](O)(CO)[C@@H](O)[C@H](O)[C@H]1O [Voglibose] .
109

Name the recorded cell viability for NCc1ccc(-c2cccnc2)s1 [(5-Pyrid-3-YLTHIEN-2-YL)METHYLAMINE] .
95.7

Name the recorded cell viability for Nc1ccn([C@@H]2O[C@H](CO)[C@@H](O)C2(F)F)c(=O)n1 [Gemcitabine] .
1.01

Name the recorded cell viability for C=C1C(=O)O[C@H](CCCCCCCC)[C@H]1C(=O)O [C75] .
103

Name the recorded cell viability for Oc1ncc(F)c(O)n1 [5-fluorouracil] .
88.4

Name the recorded cell viability for CN(C)C(=O)n1nnnc1Cc1ccc(-c2ccccc2)cc1 .
102

====

# System: THP-1
# measurement-notes: cell viability (% survival relative to DMSO control, bortezomib = 0%); higher = less cytotoxic
# conditions-used: 10 nM; 72 h
measured-parameter: cell viability
Write the numeric value and append its unit.

State its cell viability on THP-1: CC(=O)N[C@@H](CS)C(=O)O [Acetylcysteine]
98.8%

State its cell viability on THP-1: CC(C)c1ccc2c(c1)c(SC(C)(C)C)c(CC(C)(C)C(=O)O)n2Cc1ccc(Cl)cc1 [MK-886]
101%

State its cell viability on THP-1: NCc1ccc(S(N)(=O)=O)cc1 [4-Homosulfanilamide]
92.5%

State its cell viability on THP-1: CN(C)CCNC(=O)c1cccn2c(=O)c3cc4ccccc4cc3nc12 [Bmh-21]
96.4%

State its cell viability on THP-1: Oc1ncc(F)c(O)n1 [5-fluorouracil]
111%

State its cell viability on THP-1: Cl.NC1=CCCN1Cc1nc(O)nc(O)c1Cl [Tipiracil]
97.2%

====

# System: HL-60
# measurement-notes: cell viability (% survival relative to DMSO control); higher = less cytotoxic
# conditions-used: 0.01 µM; 72 h; co-treatment: DMSO vehicle
measured-parameter: cell viability (%)
I only need the number, in %, no unit after it.

Name the recorded cell viability for N=C(N)c1ccc(N=NNc2ccc(C(=N)N)cc2)cc1 .
101

Name the recorded cell viability for CCC(CC#N)OC(=O)N[C@@H](C)c1cccc(NC(=O)Nc2ccc(-c3cnco3)c(OC)c2)c1 (stereo in doubt) .
97

Name the recorded cell viability for O[C@H]1[C@H](O)[C@@H](O)CN2CC[C@H](O)[C@H]12 .
100

Name the recorded cell viability for Cc1nnc(-c2ccc(N3CCC(Oc4ccccc4C(F)(F)F)CC3)nn2)s1 .
102

Name the recorded cell viability for CN1CC(=O)N2[C@H](c3ccc4c(c3)OCO4)c3[nH]c4ccccc4c3C[C@@H]2C1=O .
103

Name the recorded cell viability for NCc1ccc(-c2cccnc2)s1 .
101

====

# Tested on: BV-173
# measurement-notes: cell viability (% survival relative to DMSO control, bortezomib = 0%); higher = less cytotoxic
# conditions-used: 100 nM; 72 h
I'd appreciate it if you could supply cell viability values for the items below.
I only need the number, in %, no unit after it.

Name the recorded cell viability for CC(C)c1ccc2c(c1)c(SC(C)(C)C)c(CC(C)(C)C(=O)O)n2Cc1ccc(Cl)cc1 .
114

Name the recorded cell viability for CC(C)(CCCCCCCCCCC(C)(C)CC(=O)O)CC(=O)O .
98.5

Name the recorded cell viability for CCCCCCCNC=O [N-Heptyl-Formamide] .
90.4

====

# Tested on: K-562
# conditions-used: 72 h
measured-parameter: IC50 (cell viability) (µM)
I only need the number, in µM, no unit after it.

State its IC50 (cell viability) on K-562: CCC(CC#N)OC(=O)N[C@@H](C)c1cccc(NC(=O)Nc2ccc(-c3cnco3)c(OC)c2)c1 (stereo in doubt) [AVN-944]
0.0558

State its IC50 (cell viability) on K-562: C=C1NC(=O)c2cc(CN(C)c3ccc(C(=O)N[C@@H](CCC(=O)O)C(=O)O)s3)ccc2N1 [Raltitrexed]
0.201

State its IC50 (cell viability) on K-562: c1ccc2c(c1)SCc1c-2[nH]c2ccccc12
4.42

====

# Tested on: THP-1
# measurement-notes: cell viability (% survival relative to DMSO control, bortezomib = 0%); higher = less cytotoxic
# conditions-used: 1000 nM; 72 h
I'd appreciate it if you could supply cell viability values for the items below.
I only need the number, in %, no unit after it.

Name the recorded cell viability for OCCN(CCO)c1nc(N2CCCCC2)c2nc(N(CCO)CCO)nc(N3CCCCC3)c2n1 [Dipyridamole] .
90.8

Name the recorded cell viability for Cc1cc(O)c2c(c1)C(=O)c1cc(O)cc(O)c1C2=O [Emodin] .
90.5

Name the recorded cell viability for O=C1N[C@@H]2[C@@H](O)[C@@H](O)[C@H](O)[C@@H](CO)N2C1=O [Kifunensine] .
89

Name the recorded cell viability for CCCCC/C=C\C/C=C\C/C=C\C/C=C\CCCC(=O)C(F)(F)F [Arachidonyl trifluoromethyl ketone] .
87.5

====

I'd appreciate it if you could supply cell viability values for the items below.
# System: KU-812
# measurement-notes: cell viability (% survival relative to DMSO control, bortezomib = 0%); higher = less cytotoxic
# conditions-used: 100 nM; 72 h
Counter-ions that a name gives are not always drawn.
I only need the number, in %, no unit after it.

State its cell viability on KU-812: CCCCCCCCCCCCC/C=C/[C@@H](O)[C@H](CO)N(C)C
103

State its cell viability on KU-812: Nc1nc(O)c2c(CCc3ccc(C(=O)N[C@@H](CCC(=O)O)C(=O)O)cc3)c[nH]c2n1
71.1

State its cell viability on KU-812: Cl.OC[C@H]1NC[C@H](O)[C@@H](O)[C@H]1O
99.4

State its cell viability on KU-812: O=C(C(=O)c1ccc(Br)cc1)c1ccc(Br)cc1
104

State its cell viability on KU-812: CCCCCCCCCCCCCCOc1ccc(C(=O)O)o1
95.6

State its cell viability on KU-812: CC(C)(CS(=O)(=O)[O-])NC(=O)CC[N+](C)(C)CCO
99.3

State its cell viability on KU-812: CC(C)(CCCCCCCCCCC(C)(C)CC(=O)O)CC(=O)O
101

State its cell viability on KU-812: COc1cc(C2Oc3cc(C4Oc5cc(O)cc(O)c5C(=O)C4O)ccc3OC2CO)ccc1O (centres undefined)
108

State its cell viability on KU-812: Cl.NC1=CCCN1Cc1nc(O)nc(O)c1Cl
104

State its cell viability on KU-812: COc1ccc2c(c1)c(CC(=O)O)c(C)n2C(=O)c1ccc(Cl)cc1
95.6

State its cell viability on KU-812: OCC(CO)N[C@H]1C[C@](O)(CO)[C@@H](O)[C@H](O)[C@H]1O
106

State its cell viability on KU-812: O=C(Cc1cccc(OC(F)(F)F)c1)Nc1ccc(CCCCc2nnc(NC(=O)Cc3ccccn3)s2)nn1
72.2

State its cell viability on KU-812: N=C(N)c1ccc(N=NNc2ccc(C(=N)N)cc2)cc1
95.5

State its cell viability on KU-812: CC(C)(Cc1ccccc1)NCC(O)c1ccc(O)c(NS(C)(=O)=O)c1 (centres undefined) [Zinterol hydrochloride]
106
